Every entry's value here was drawn from patent US20260226026A1.

System: Jurkat cells
Assay: Inhibition of Jurkat cell proliferation (CellTiter-Glo, 72 hours)
Type: cell-based
Settings: Homo sapiens; Jurkat cells, 72 hours, CellTiter-Glo; read-out: Jurkat (IC50)
Value type: IC50

These recorded examples may help you get a feel for the data.
CCOc1cncc(-c2ccc(NC(=O)C3(c4ccnc(NS(=O)(=O)C5CC5)n4)CCC(=CC4COC4)CC3)nc2)n1 (stereo not shown); < 5 nM
CCOc1cncc(-c2ccc(NC(=O)C3(c4ccnc(NS(=O)(=O)C5CC5)n4)CCC(=C(F)F)CC3)c(F)c2)n1 (stereo not shown); < 50 nM
CCOc1cncc(-c2ccc(NC(=O)C3(c4ccnc(NS(=O)(=O)C5CC5)n4)CCC(=C(C)C)CC3)nc2)n1 (stereo not shown); < 50 nM
CCOc1cncc(-c2ccc(NC(=O)C3(c4ccnc(NS(=O)(=O)C5CC5)n4)CCC(=CCN4CC(O)C4)CC3)nc2)n1 (stereo not shown); < 100 nM
CCOc1cncc(-c2ccc(NC(=O)C3(c4ccnc(NS(=O)(=O)C5CC5)n4)CCC(=Cc4cncnc4)CC3)nc2)n1 (stereo not shown); < 50 nM
CCOc1cncc(-c2ccc(NC(=O)C3(c4ccnc(NS(=O)(=O)C5CC5)n4)CCC(=CCc4ccccc4)CC3)nc2)n1 (stereo not shown); < 1000 nM

Turning now to a further molecule:
Answer with the recorded IC50 of CCOc1cncc(-c2ccc(NC(=O)C3(c4ccnc(NS(=O)(=O)C5CC5)n4)CCC(=CCNC(C)=O)CC3)nc2)n1 (stereo not shown) only.
< 30 nM

###

Experiment: in vivo
Design: species or system SD rats
Conditions: male, SD, rat, po, 1.5 mg/kg
Description: Instrumentation: SCIEX Triple Quad 6500+ triple quadrupole liquid chromatography-mass spectrometry system (LC-MS/MS), operating software is Analyst 1.7.2 (Applied Biosystems, USA); ExionLC liquid chromatography system; Microsoft Excel was used for data calculation and processing. Pharmacokinetic parameters were calculated using the statistical moment method with WinNonlin 8.2 software. Key kinetic parameters included Tmax, T1/2, Cmax, AUC0-24 h etc. […]
Value type: AUC(0-t) (ng·h/mL)
Give bare numbers, in ng·h/mL.

Answer with the recorded AUC(0-t) of CCOc1cncc(-c2ccc(NC(=O)C3(c4ccnc(NS(=O)(=O)C5CC5)n4)CCC(=C(F)C4CCOCC4)CC3)nc2)n1 (stereo not shown) [Compound 52] only.
7640

###

Assay: in vivo
Design: species or system SD rats
Settings: male, SD, rat, po, 2 mg/kg
Value type: log10(Cmax) (log10 of the value in ng/mL)
In plain terms, each number is the log10 of measured Cmax in ng/mL.

CCOc1cncc(-c2ccc(NC(=O)C3(c4ccnc(NS(=O)(=O)C5CC5)n4)CCC(=C(C)CO)CC3)nc2)n1 (stereo not drawn); 3.26
CCOc1cncc(-c2ccc(NC(=O)C3(c4ccnc(NS(=O)(=O)C5CC5)n4)CCC(=CCCO)CC3)nc2)n1 (stereo not drawn); 1.02
CCOc1cncc(-c2ccc(NC(=O)C3(c4ccnc(NS(=O)(=O)C5CC5)n4)CCC(=C(F)CC4COC4)CC3)nc2)n1 (stereo not drawn); 3.37
CCOc1cncc(-c2ccc(NC(=O)C3(c4ccnc(NS(=O)(=O)C5CC5)n4)CCC(=C(C)C4COC4)CC3)nc2)n1 (stereo not drawn); 1.16
CCOc1cncc(-c2ccc(NC(=O)C3(c4ccnc(NS(=O)(=O)C5CC5)n4)CCC(=C(F)CO)CC3)nc2)n1 (stereo not drawn); 2.92

Turning now to a further compound:
Answer with the recorded log10(Cmax) of CCOc1cncc(-c2ccc(NC(=O)C3(c4ccnc(NS(=O)(=O)C5CC5)n4)CCC(=C(F)C4COC4)CC3)nc2)n1 (stereo not drawn) only.
3.01

###

System: Jurkat cells
Assay: Inhibition of Jurkat cell proliferation (CellTiter-Glo, 72 hours)
Type: cell-based
Conditions: Homo sapiens; Jurkat cells, 72 hours, CellTiter-Glo; read-out: Jurkat (IC50)
Procedure: Select Jurkat cells in good growth condition and digest them with trypsin. Add fresh culture medium, mix thoroughly, and centrifuge at 1000 rpm for 5 minutes. Seed the cells into a 96-well plate at a density of 10,000 cells per well, and incubate overnight in a 37° C. incubator. […] After incubation, bring out the cell culture plate and equilibrate it to room temperature. […] Measure the luminescence using an Enspire plate reader. […]
pIC50: −log10 of the molar value.
Value type: pIC50

These recorded examples may help you get a feel for the data.
CCOc1cncc(-c2ccc(NC(=O)C3(c4ccnc(NS(=O)(=O)C5CC5)n4)CCN(c4ccncc4)CC3)nc2)n1; > 6.70
CCOc1cncc(-c2ccc(NC(=O)C3(c4nccc(NS(=O)(=O)C5CC5)n4)CCC(=C(F)F)CC3)nc2)n1 (centres unmarked); > 7.30
O=C(Nc1ccc(-c2cncc(OC3CC(=C(F)F)C3)n2)cn1)C1(c2ccnc(NS(=O)(=O)C3CC3)n2)CCOCC1 (centres unmarked); > 6.12
CCOc1cncc(-c2ccc(NC(=O)C3(c4ccnc(NS(=O)(=O)C5CC5)n4)CCC(=CC#N)CC3)nc2)n1 (centres unmarked); > 7.82

Go through the items and report each one's pIC50.
1. CCOc1cncc(-c2ccc(NC(=O)C3(c4ccnc(NS(=O)(=O)C5CC5)n4)CCC(=Cc4cccnc4)CC3)nc2)n1 (centres unmarked)
2. CCOc1cncc(-c2ccc(NC(=O)C3(c4ccnc(NS(=O)(=O)C5CC5)n4)CCC(=Cc4ccsc4)CC3)nc2)n1 (centres unmarked)

["> 7.30", "> 7.00"]

###

Tested on: Jurkat cells
Assay: Inhibition of Jurkat cell proliferation (CellTiter-Glo, 72 hours)
Type: cell-based
Details: Homo sapiens; Jurkat cells, 72 hours, CellTiter-Glo; read-out: Jurkat (IC50)
Experimental: Select Jurkat cells in good growth condition and digest them with trypsin. Add fresh culture medium, mix thoroughly, and centrifuge at 1000 rpm for 5 minutes. Seed the cells into a 96-well plate at a density of 10,000 cells per well, and incubate overnight in a 37° C. incubator. […] After incubation, bring out the cell culture plate and equilibrate it to room temperature. […] Measure the luminescence using an Enspire plate reader. […]
Provide the reported IC50 of each item.

These recorded examples may help you get a feel for the data.
CCOc1cncc(-c2ccc(NC(=O)C3(c4ccnc(NS(=O)(=O)C5CC5)n4)CCC(=Cc4ccoc4)CC3)nc2)n1 (stereo not shown) [Compound 42]; < 50 nM
CCOC(=O)C(F)=C1CCC(C(=O)Nc2ccc(-c3cncc(OCC)n3)cn2)(c2ccnc(NS(=O)(=O)C3CC3)n2)CC1 (stereo not shown) [Compound 43]; < 50 nM
CCOc1cncc(-c2ccc(NC(=O)C3(c4ccnc(NS(=O)(=O)C5CC5)n4)CCC(=CCCOC)CC3)nc2)n1 (stereo not shown) [Compound 45]; < 30 nM

Go through the items and report each one's IC50.
1. CCOc1cncc(-c2ccc(NC(=O)C3(c4ccnc(NS(=O)(=O)C5CC5)n4)CCC(=C(F)C(C)=O)CC3)nc2)n1 (stereo not shown) [Compound 61]
2. CCOc1cncc(-c2ccc(NC(=O)C3(c4ccnc(NS(=O)(=O)C5CC5)n4)CCC(=C(C)C4COC4)CC3)nc2)n1 (stereo not shown) [Compound 51]
3. CCOc1cncc(-c2ccc(NC(=O)C3(c4ccnc(NS(=O)(=O)C5CC5)n4)CCC(=CC(C)=O)CC3)nc2)n1 (stereo not shown) [Compound 60]
4. CCOc1cncc(-c2ccc(NC(=O)C3(c4ccnc(NS(=O)(=O)C5CC5)n4)CCC(=CC4(C)COC4)CC3)nc2)n1 (stereo not shown) [Compound 62]
5. CCOc1cncc(-c2cnc(C(=O)NC3(c4ccnc(NS(=O)(=O)C5CC5)n4)CCC(=C(F)F)CC3)s2)n1 (stereo not shown) [Compound 72]
6. CCOc1cncc(-c2ccc(NC(=O)C3(c4ccnc(NS(=O)(=O)C5CC5)n4)CCC(=C(F)CC(C)(C)O)CC3)nc2)n1 (stereo not shown) [Compound 67]
7. CCOc1cncc(-c2ccc(NC(=O)C3(c4ccnc(NS(=O)(=O)C5CC5)n4)CC(=CC4CCOCC4)C3)nc2)n1 (stereo not shown) [Compound 48]

1. < 50 nM
2. < 30 nM
3. < 30 nM
4. < 15 nM
5. < 200 nM
6. < 50 nM
7. < 30 nM

Go through the items and report each one's IC50.
1. CCOc1cncc(-c2cnc(NC(=O)C3(c4ccnc(NS(=O)(=O)C5CC5)n4)CCC(=C(F)F)CC3)c(F)c2)n1 (stereo not shown) [Compound 71]
2. CCOc1cncc(-c2ccc(NC(=O)C3(c4ccnc(NS(=O)(=O)C5CC5)n4)CCC(=C(F)C4CCOCC4)CC3)nc2)n1 (stereo not shown) [Compound 52]
3. CCOc1cncc(-c2ccc(NC(=O)C3(c4ccnc(NS(=O)(=O)C5CC5)n4)CCN(C4CC(=C(F)F)C4)CC3)nc2)n1 (stereo not shown) [Compound 31]

["< 200 nM", "< 15 nM", "< 50 nM"]

###

Assay: in vivo
Design: species or system SD rats
Settings: male, SD, rat, po, 2 mg/kg
Provide the reported half-life of each item.
Answers are plain numbers, in h.

CCOc1cncc(-c2ccc(NC(=O)C3(c4ccnc(NS(=O)(=O)C5CC5)n4)CCC(=CCCO)CC3)nc2)n1 (stereo not drawn) [Compound 44]; 1.77
CCOc1cncc(-c2ccc(NC(=O)C3(c4ccnc(NS(=O)(=O)C5CC5)n4)CCC(=C(F)CO)CC3)nc2)n1 (stereo not drawn) [Compound 39]; 2.48
CCOc1cncc(-c2ccc(NC(=O)C3(c4ccnc(NS(=O)(=O)C5CC5)n4)CCC(=C(F)CC4COC4)CC3)nc2)n1 (stereo not drawn) [Compound 69]; 1.89
CCOc1cncc(-c2ccc(NC(=O)C3(c4ccnc(NS(=O)(=O)C5CC5)n4)CCC(=C(F)C4COC4)CC3)nc2)n1 (stereo not drawn) [Compound 50]; 1.13
CCOc1cncc(-c2ccc(NC(=O)C3(c4ccnc(NS(=O)(=O)C5CC5)n4)CCC(=C(C)CO)CC3)nc2)n1 (stereo not drawn) [Compound 47]; 2.01

Turning now to a further molecule:
Answer with the recorded half-life of CCOc1cncc(-c2ccc(NC(=O)C3(c4ccnc(NS(=O)(=O)C5CC5)n4)CCC(=C(C)C4COC4)CC3)nc2)n1 (stereo not drawn) [Compound 51] only.
1.56
